Assayed Target: T1, human GIP receptor (human) (UniProt P48546)
T1 sequence (looked up): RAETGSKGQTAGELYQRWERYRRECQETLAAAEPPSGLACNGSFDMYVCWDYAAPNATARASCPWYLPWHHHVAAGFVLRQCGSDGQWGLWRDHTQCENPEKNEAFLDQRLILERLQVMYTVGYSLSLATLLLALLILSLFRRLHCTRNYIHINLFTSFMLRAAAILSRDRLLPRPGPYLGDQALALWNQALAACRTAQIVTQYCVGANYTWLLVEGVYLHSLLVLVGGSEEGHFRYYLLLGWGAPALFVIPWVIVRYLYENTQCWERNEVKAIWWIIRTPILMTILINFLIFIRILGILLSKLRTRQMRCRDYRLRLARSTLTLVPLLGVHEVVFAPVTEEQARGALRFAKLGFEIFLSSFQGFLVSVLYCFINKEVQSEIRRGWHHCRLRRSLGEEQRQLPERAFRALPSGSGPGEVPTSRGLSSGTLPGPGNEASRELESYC
Assay Info: cell-based or functional assay
*1 amine or outer side, *2 acyl side, *3 side chain or, on linkers, in order; H or OH if unused. Where no end group is shown, it is not given here. Side-chain parts run from the residue outwards. [ ]: non-standard residue; d: D form. The star is where a group is joined. Decanoyl(10-(4-HOOC-PhO)) = O=C(O)c1ccc(OCCCCCCCCCC(=O)*)cc1; αMePhe(2-F) = C[C@](N)(Cc1ccccc1F)C(=O)O; γGlu = O=C(O)[C@H](CCC(=O)[*:2])N[*:1]; αMeY = C[C@](N)(Cc1ccc(O)cc1)C(=O)O; αMeL = CC(C)C[C@](C)(N)C(=O)O; Orn = NCCC[C@H](N)C(=O)O; AEEA = NCCOCCOCC(=O)O; Aib = CC(C)(N)C(=O)O
Quantity: cAMP EC50
Lab note: write values as number then unit, every time.

- Binder: "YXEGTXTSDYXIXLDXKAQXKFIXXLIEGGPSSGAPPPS (Y-Aib-EGT-αMeF(2F)-TSDY-Aib-I-αMeL-LD-Orn-K((2-[2-(2-Amino-ethoxy)-ethoxy]-acetyl)2-CO-(CH2)12-CO2H)AQ-Aib-K((2-[2-(2-Amino-ethoxy)-ethoxy]-acetyl)2-CO-(CH2)12-CO2H)FI-(D-Glu)-αMeY-LIEGGPSSGAPPPS-NH2) [Example 385]"
  Result: "0.0154 nM"

Go through the list and state cAMP EC50 for each entry.
1. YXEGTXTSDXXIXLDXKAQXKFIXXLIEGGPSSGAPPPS (Y-Aib-EGT-αMeF(2F)-TSD-4Pal-Aib-I-αMeL-LD-Orn-K(PEG4-(γ-Glu)-CO-(CH2)12-CO2H)AQ-Aib-K(PEG4-(γ-Glu)-CO-(CH2)12-CO2H)FI-(D-Glu)-αMeY-LIEGGPSSGAPPPS-NH2) [Example 405]
2. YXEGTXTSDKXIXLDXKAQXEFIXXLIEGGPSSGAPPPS (Y-Aib-EGT-αMeF(2F)-TSDK((2-[2-(2-Amino-ethoxy)-ethoxy]-acetyl)3-(γ-Glu)-CO-(CH2)10-CH3)-Aib-I-αMeL-LD-Orn-K((2-[2-(2-Amino-ethoxy)-ethoxy]-acetyl)3-(γ-Glu)-CO-(CH2)10-CH3)AQ-Aib-EFI-(D-Glu)-αMeY-LIEGGPSSGAPPPS-NH2) [Example 421]
3. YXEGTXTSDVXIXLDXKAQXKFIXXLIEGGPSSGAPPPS (Y-Aib-EGT-αMeF(2F)-TSDV-Aib-I-αMeL-LD-Orn-K((2-[2-(2-Amino-ethoxy)-ethoxy]-acetyl)2-(10-(4-carboxyphenoxy)decanoyl))AQ-Aib-K((2-[2-(2-Amino-ethoxy)-ethoxy]-acetyl)2-(10-(4-carboxyphenoxy)decanoyl))FI-(D-Glu)-αMeY-LIEGGPSSGAPPPS-NH2) [Example 394]
4. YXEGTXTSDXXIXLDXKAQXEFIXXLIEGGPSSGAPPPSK (Y-Aib-EGT-αMeF(2F)-TSD-4Pal-Aib-I-αMeL-LD-Orn-K((2-[2-(2-Amino-ethoxy)-ethoxy]-acetyl)-(γ-Glu)-CO-(CH2)10-CH3)AQ-Aib-EFI-(D-Glu)-αMeY-LIEGGPSSGAPPPSK((2-[2-(2-Amino-ethoxy)-ethoxy]-acetyl)-(γ-Glu)-CO-(CH2)10-CH3)-NH2) [Example 428]
5. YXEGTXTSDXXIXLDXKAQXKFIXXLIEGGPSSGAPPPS (Y-Aib-EGT-αMeF(2F)-TSD-4Pal-Aib-I-αMeL-LD-Orn-K(PEG3-(γ-Glu)-CO-(CH2)12-CO2H)AQ-Aib-K(PEG3-(γ-Glu)-CO-(CH2)12-CO2H)FI-(D-Glu)-αMeY-LIEGGPSSGAPPPS-NH2) [Example 404]
6. Y[Aib]EGT[αMePhe(2-F)]TSDV[Aib]I[αMeL]LD[Orn]K([AEEA-AEEA-γGlu-Decanoyl(10-(4-HOOC-PhO))])AQ[Aib]EFI[dE][αMeY]LIK([AEEA-AEEA-γGlu-Decanoyl(10-(4-HOOC-PhO))])GGPSSGAPPPS-NH2 [Example 326]
7. YXEGTXTSDXXIXLDXKAQXKXIXXLIEGGPSSGAPPPS (not fully specified; Y-Aib-EGT-αMeF(2F)-TSD-4Pal-Aib-I-αMeL-LD-Orn-K((2-[2-(2-Amino-ethoxy)-ethoxy]-acetyl)2-(γ Glu)-CO-(CH2)10H3)AQ-Aib-K((2-[2-(2-Amino-ethoxy)-ethoxy]-acetyl)2-(γGlu)-CO-(CH2)10C3)-αMeFI-(D-Glu)-αMeY-LIEGGPSSGAPPPS-NH2) [Example 430]

[A]
1. 0.0209 nM
2. 0.00618 nM
3. 0.0179 nM
4. 0.00797 nM
5. 0.014 nM
6. 0.0338 nM
7. 0.0175 nM
